B1: NEUROD6 (parent)
chain: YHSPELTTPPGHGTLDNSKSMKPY

Variants of: B1
ASSAY_INFO: protein stability index of a GFP-peptide fusion (GPS, HEK-293T) (PSI 1-6); higher = more stable;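 further: lentivirally expressed fusions sorted by FACS into six bins by GFP to DsRed ratio, PSI derived from sequencing read proportions per bin multiplied by bin number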
SETUP_CONDITIONS: c terminus: a fixed tail appended
Kindly state protein stability index for each of the entries shown.
Please give only the number in your answer, with no unit.

Briefly, protein stability index measured for T7C : 1.98

Briefly, protein stability index measured for D16T : 2.05

Briefly, protein stability index measured for L6D : 4.05

Briefly, protein stability index measured for M21N : 2.82

Briefly, protein stability index measured for N17Y : 1.88

Briefly, protein stability index measured for L15G : 2.24

Briefly, protein stability index measured for P10N : 1.97

Briefly, protein stability index measured for E5K : 2.14

Briefly, protein stability index measured for S3L : 2.19

Briefly, protein stability index measured for S20W : 1.97

Briefly, protein stability index measured for K19D : 2.85
